Attribution: patent US20160369009A1

tested system: T1, human kallikrein-2 (hK2) (human, UniProt P20151 25-261)
T1 construct: The mature protein is said to be underlined, but the underlining is not recoverable from the text; In the assay hK2 was amine-coupled to a CM4 chip; also called human glandular kallikrein 2; antigen hK2
T1 sequence (P20151 25-261 limits assumed): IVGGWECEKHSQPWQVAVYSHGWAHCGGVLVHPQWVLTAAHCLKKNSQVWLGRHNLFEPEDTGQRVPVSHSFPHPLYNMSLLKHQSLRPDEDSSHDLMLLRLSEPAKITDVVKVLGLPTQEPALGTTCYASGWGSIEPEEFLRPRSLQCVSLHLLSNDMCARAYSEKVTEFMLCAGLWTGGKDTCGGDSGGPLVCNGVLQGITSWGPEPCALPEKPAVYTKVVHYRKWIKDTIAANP
procedure text: SPR, Biacore 3000, hK2 amine-coupled on CM4 chip, channel fc3, 50 nM antibody, 480 min dissociation
Would you kindly list koff for each of these binders?
One number for each entry, in s⁻¹.

For orientation, consider the following solved cases.
binder	value measured
h11B6-DFO (humanised 11B6 conjugated with deferoxamine) (antibody, human IgG1, kappa, V domains shown, DFO (deferoxamine) chelator coupled; residues and chain not stated, This is the h11B6 IgG1/kappa carrying DFO; also called h1166-DFO; DFO-h11B6) VH: QVQLQESGPGLVKPSDTLSLTCAVSGNSITSDYAWNWIRQPPGKGLEWIGYISYSGSTTYNPSLKSRVTMSRDTSKNQFSLKLSSVTAVDTAVYYCATGYYYGSGFWGQGTLVTVSS VL: DIVLTQSPDSLAVSLGERATINCKASESVEYFGTSLMHWYQQKPGQPPKLLIYAASNRESGVPDRFSGSGSGTDFTLTISSLQAEDVAVYYCQQTRKVPYTFGQGTKLEIKR	5.5e-05
humanised 11B6 antibody (h11B6), IgG1/kappa (antibody, V domains shown, Expressed transiently in HEK293 cells; also called h1186) VH: QVQLQESGPGLVKPSDTLSLTCAVSGNSITSDYAWNWIRQPPGKGLEWIGYISYSGSTTYNPSLKSRVTMSRDTSKNQFSLKLSSVTAVDTAVYYCATGYYYGSGFWGQGTLVTVSS VL: DIVLTQSPDSLAVSLGERATINCKASESVEYFGTSLMHWYQQKPGQPPKLLIYAASNRESGVPDRFSGSGSGTDFTLTISSLQAEDVAVYYCQQTRKVPYTFGQGTKLEIKR	6.9e-05
murine 11B6 antibody (m11B6), parent murine anti-hK2 monoclonal antibody (antibody, mouse IgG1, kappa, V domains shown, Whole murine IgG obtained from the University of Turku; also called mAb 11B6; ml 1B6) VH: DVQLQESGPGLVKPSQSLSLTCTVTGNSITSDYAWNWIRQFPGNRLEWMGYISYSGSTTYSPSLKSRFSITRDTSKNQFFLQLNSVTPEDTATYFCATGYYYGSGFWGQGTLVTVSS VL: DIVLTQSPASLAVSLGQRATISCRASESVEYFGTSLMHWYRQKPGQPPKLLIYAASNVESGVPARFSGSGSGTDFSLNIQPVEEDDFSMYFCQQTRKVPYTFGGGTKLEIKR	4.9e-05

Summary for this binder, h11B6-DTPA (humanised 11B6 conjugated with DTPA chelator) (antibody, V domains shown, DTPA chelator coupled; residues and chain not stated, This is the h11B6 IgG1/kappa carrying a chelator; also called h1166-DTPA; H1166-DTPA) VH: QVQLQESGPGLVKPSDTLSLTCAVSGNSITSDYAWNWIRQPPGKGLEWIGYISYSGSTTYNPSLKSRVTMSRDTSKNQFSLKLSSVTAVDTAVYYCATGYYYGSGFWGQGTLVTVSS VL: DIVLTQSPDSLAVSLGERATINCKASESVEYFGTSLMHWYQQKPGQPPKLLIYAASNRESGVPDRFSGSGSGTDFTLTISSLQAEDVAVYYCQQTRKVPYTFGQGTKLEIKR : koff is 0.000191
